Biological target: UniProt:P10275
Sequence (P10275 1-920): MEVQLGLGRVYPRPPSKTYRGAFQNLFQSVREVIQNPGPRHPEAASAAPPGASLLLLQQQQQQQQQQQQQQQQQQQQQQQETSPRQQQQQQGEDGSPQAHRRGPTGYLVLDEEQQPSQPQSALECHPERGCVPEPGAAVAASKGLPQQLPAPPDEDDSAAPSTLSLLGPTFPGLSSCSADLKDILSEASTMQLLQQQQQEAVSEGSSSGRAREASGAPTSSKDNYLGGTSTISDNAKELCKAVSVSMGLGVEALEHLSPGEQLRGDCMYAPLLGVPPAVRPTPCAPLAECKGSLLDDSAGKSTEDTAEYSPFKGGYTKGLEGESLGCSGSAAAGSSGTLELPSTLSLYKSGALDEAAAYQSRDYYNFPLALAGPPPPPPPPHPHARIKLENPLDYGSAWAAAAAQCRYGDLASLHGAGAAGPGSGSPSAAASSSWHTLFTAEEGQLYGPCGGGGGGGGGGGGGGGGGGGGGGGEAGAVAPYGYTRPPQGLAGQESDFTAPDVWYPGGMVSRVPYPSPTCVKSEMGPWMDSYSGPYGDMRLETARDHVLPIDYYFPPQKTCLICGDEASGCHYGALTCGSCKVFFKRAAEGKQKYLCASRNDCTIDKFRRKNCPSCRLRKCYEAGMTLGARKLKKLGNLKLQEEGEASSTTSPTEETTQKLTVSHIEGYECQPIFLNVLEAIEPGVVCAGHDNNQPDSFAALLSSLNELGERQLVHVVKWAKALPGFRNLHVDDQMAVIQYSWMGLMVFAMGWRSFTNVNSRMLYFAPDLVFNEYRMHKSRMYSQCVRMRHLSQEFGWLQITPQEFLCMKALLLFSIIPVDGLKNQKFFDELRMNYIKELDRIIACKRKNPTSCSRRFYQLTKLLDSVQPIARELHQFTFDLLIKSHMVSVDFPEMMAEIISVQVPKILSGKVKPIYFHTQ
Assay: AR reporter gene assay in HEK293
Type: cell-based
Conditions: reporter gene assay, HEK293; agonist dihydrotestosterone 0.3 nM; read-out: AR antagonistic activity (IC50), AR reporter gene
Listed molecules paired with reported pIC50
// pIC50 here means minus log10 of the molar concentration (mol/L)

Exercise: Query pIC50 on UniProt:P10275 for CCCCn1c(=O)c2c(OC)c(OC)ccc2c2cc(C(O)(C(F)(F)F)C(F)(F)F)ccc21
Solution: 5.34

Exercise: Queued: Cc1cc(C(O)(C(F)(F)F)C(F)(F)F)cc2c3ccc(F)cc3c(=O)n(C)c12
Solution: 6.52

Exercise: Subsequent entry: CCCCn1c(=O)c2ccccc2c2cc(C(O)(C(F)(F)F)C(F)(F)F)cc(OC)c21
Solution: 5.62

Exercise: Same for CCn1c(=O)c2ccccc2c2cc(C(O)(C(F)(F)F)C(F)(F)F)ccc21
Solution: 5.77

Exercise: // next record CCCCn1c(=O)c2ccccc2c2ccccc21
Solution: 4.77

Exercise: And then O=c1[nH]c2c(F)cc(C(O)(C(F)(F)F)C(F)(F)F)cc2c2ccccc12 , what is it?
Solution: 6.41

Exercise: Again, but for CCCCn1c(=O)c2ccccc2c2cc(C(O)(C(F)(F)F)C(F)(F)F)c3c(c21)OCO3
Solution: 6.27

Exercise: And then CCCn1c(=O)c2ccccc2c2cc(C(O)(C(F)(F)F)C(F)(F)F)ccc21 , what is it?
Solution: 5.25

Exercise: Same question, CCCCn1c(=O)c2ccccc2c2cc(C(O)(C(F)(F)F)C(F)(F)F)ccc21 this time
Solution: 5.74

Exercise: Moving on to CCCCCCn1c(=O)c2ccccc2c2cc(C(O)(C(F)(F)F)C(F)(F)F)ccc21
Solution: 5.40

---
Exercise: For the record O=c1[nH]c2ccc(C(O)(C(F)(F)F)C(F)(F)F)cc2c2ccc(F)cc12 , what value of pIC50 is listed for UniProt:P10275?
Solution: 6.17

Exercise: Next record, please: CCCCn1c(=O)c2cc(OC)ccc2c2cc(C(O)(C(F)(F)F)C(F)(F)F)cc(OC)c21
Solution: 5.77

----------
Overview of recorded pIC50 for various molecules
Target: AR (Homo sapiens)
Assay: AR reporter gene assay in HEK293
Format: cell-based
Details: reporter gene assay, HEK293; agonist dihydrotestosterone 0.3 nM; read-out: AR antagonistic activity (IC50), AR reporter gene
pIC50: −log10 of the molar value.

Here is how some molecules turned out for pIC50.
Exercise: Looking for the measured pIC50 of CCCCn1c(=O)c2c(OC)cc(OC)cc2c2cc(C(O)(C(F)(F)F)C(F)(F)F)ccc21 [Compound 30] , can you help?
Solution: < 4.70

Exercise: Same question for CCCCn1c(=O)c2ccccc2c2c(OC)c(C(O)(C(F)(F)F)C(F)(F)F)ccc21 [Compound 18] please.
Solution: < 4.70

Exercise: And what about the molecule CCCCn1c(=O)c2ccc(C(F)(F)F)cc2c2cc(C(O)(C(F)(F)F)C(F)(F)F)ccc21 [Compound 37] ?
Solution: < 4.70

Exercise: Query COc1cc(C(O)(C(F)(F)F)C(F)(F)F)cc2c1[nH]c(=O)c1ccccc12 [Compound 39] next
Solution: < 4.70

Exercise: And what about the molecule CCCCn1c(=O)c2ccc(O)cc2c2cc(C(O)(C(F)(F)F)C(F)(F)F)ccc21 [Compound 38] ?
Solution: < 5.52

Field: next molecule
Exercise: Entry CCCCn1c(=O)c2cccc(OC)c2c2cc(C(O)(C(F)(F)F)C(F)(F)F)ccc21 [Compound 24] has what pIC50?
Solution: < 4.70
